B1: PLD5 (parent)
chain: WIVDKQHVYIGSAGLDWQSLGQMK

# Variants of: B1
# assay_explanation: protein stability index of a GFP-peptide fusion (GPS, HEK-293T) (PSI 1-6); higher = more stable;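 also: lentivirally expressed fusions sorted by FACS into six bins by GFP to DsRed ratio, PSI derived from sequencing read proportions per bin multiplied by bin number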
# test_parameters: c terminus: a fixed tail appended
attribute_measured: protein stability index
Answer with the value's number alone.

For record WIVDKQHVYIGSAGLDWQSLGQMR [K24R] the listed protein stability index is 1.51

Noted for WIVDKQHVYIGSAGLDMQSLGQMK [W17M] : its protein stability index reads 1.38

The variant WIVDKQHVYIGSAGLDWQSLGIMK [Q22I] showed protein stability index equal to 1.53

Input WIVDKQHVYIGSAGLDWQSMGQMK [L20M] . Output protein stability index: 2.19

Given item WIVSKQHVYIGSAGLDWQSLGQMK [D4S] , the value recorded as its protein stability index is 2.29

Kindly note the recorded protein stability index for WIVDKQHVYCGSAGLDWQSLGQMK [I10C] , which is 1.64

# protein stability index (variant: WIVDKQHVYIGTAGLDWQSLGQMK [S12T] ) is 1.18

Record WIVDKVHVYIGSAGLDWQSLGQMK [Q6V] . Reported protein stability index: 2.08

Measured protein stability index, WIVDKQHVYIGSAGNDWQSLGQMK [L15N] : 2.01
